Ki for 5-hydroxytryptamine receptor 2A (Homo sapiens, UniProt P28223) - collated from the literature.
Result type: Ki (nM)

1) O=C1NCc2cc(F)c(OCCCCN3CCN(c4cccc5ccccc45)CC3)cc21 = 13
2) CC(=O)N1CCC(C)c2c(C)ccc(CCN3CCN(c4nsc5ccccc45)CC3)c21 (stereo not given) = 0.75
3) Cc1cccc(CNc2cc3c(cc2O)C(c2ccccc2)CN(C)CC3)c1 (racemic) = 9.95

(P) Fc1ccc2c([C@@H]3CNCC[C@H]3F)c(-c3ccsc3)[nH]c2c1
(Q) O=C(Nc1ccc(OCc2ccccn2)nc1)N1CCc2c(Cl)cccc21
(R) O=C(NCCc1c[nH]c2ccccc12)C1CCN(C(=O)c2ccc(-c3ccccc3)cc2)CC1
(S) O=c1n(Cc2ccc(CN3CCN(c4cccc(Cl)c4)CC3)cc2)nc2ccccn12
Rank entries according to their Ki, from the largest number down. Order the labels as requested and give them as your answer.
Q, R, S, P

###

Ki for 5-hydroxytryptamine receptor 2A (Homo sapiens) - collated from the literature.
Result type: Ki (nM)

Worked set:
1) O=C1NCc2cc(Cl)c(OCCCN3CCN(c4cccc5cccc(F)c45)CC3)cc21 = 8.84
2) O=C1c2ccccc2S(=O)(=O)N1CCCCN1CCN(c2cccc(C(F)(F)F)c2)CC1 = 2250
3) Cc1cc(OCCCN2CCN(c3ccccc3C#N)CC2)c2c(C)cc(=O)oc2c1 = 200
4) Cc1cc(C)n2ccnc2c1C(=O)N1CCN(CCc2ccc(F)cc2F)CC1 = 3.6
5) Cc1cccc(N2CCN(CCCCNC(=O)[C@@H]3CCc4ccccc4N3)CC2)c1 = 5.1

(1) O=S(=O)(c1cncc2ccccc12)N1CCC(CCN2CCN(c3cccc(C(F)(F)F)c3)CC2)CC1
(2) CC(=O)c1c(C)cc2oc(=O)cc(C)c2c1OCCCCN1CCN(c2cccc(Cl)c2Cl)CC1
(3) COc1ccc2[nH]cc(CCNCc3ccc(-c4ccc(O)cc4)o3)c2c1
(4) N#Cc1cc2cc(OCCCCN3CCN(c4cccc(Cl)c4Cl)CC3)ccn2n1
Rank entries according to their Ki, from the largest number down. Order the labels as requested and give them as your answer.
2, 1, 4, 3
(2: 2650 nM, 1: 161 nM, 4: 81 nM, 3: 41 nM)

(A) CC(=O)c1cc2c(cc1C(F)(F)F)N(C(=O)Nc1cccnc1)CC2
(B) O=S1(=O)c2cccc3cccc(c23)N1CCCCCCN1CCN(c2cccc(C(F)(F)F)c2)CC1
(C) O=C(CCCN1CCC(c2noc3cc(F)ccc23)CC1)c1cc2c3c(c1)CCN3C(=O)CC2
Ascending by Ki, please: list the molecules accordingly. Order the labels as requested and give them as your answer.
C, B, A

(I) COc1ccc(N2CC=C(c3ccc(Cl)c(Cl)c3)C2=O)cc1OCCN1CCCCC1
(II) OCCN1CCN(c2nc(Nc3ccc(F)cc3)c3ccccc3n2)CC1
(III) Nc1ccccc1C(=O)CCCN1CC[C@@H]2[C@H](C1)c1cccc3c1N2CCCS3
Rank entries according to their Ki, from the largest number down. Order the labels as requested and give them as your answer.
I, II, III

###

Ki for 5-hydroxytryptamine receptor 2A (Homo sapiens, UniProt P28223) - collated from the literature.
Result type: Ki (nM)

1. O=S(=O)(NCCCCN1CCN(c2cccc(Cl)c2Cl)CC1)c1cnc2ccccc2c1 = 34
2. CC(C)c1nc2c(N3CCNCC3)ccnc2n1Cc1cccc(Cl)c1 = 694
3. C#CCOc1c(OC)cc2c3c1-c1cc(NC(C)=O)ccc1CC3N(C)CC2 (stereo not given) = 1270

(I) CC(C)n1nc2c(c1-c1ccc(OC(F)(F)F)cc1)CCNCC2
(II) NCCCN1c2ccccc2CCc2ccccc21
(III) CC(=O)c1c(OCCCN2CCN(c3cc(C)ccc3C)CC2)ccc2c(C)cc(=O)oc12
(IV) [O-][S+](c1ccc(/C=C/c2ccc(F)cc2)nc1)c1ccccc1F (stereo not given)
Ascending by Ki, please: list the molecules accordingly. Order the labels as requested and give them as your answer.
IV, I, III, II
